experiment: MRT (0 to t) in ICR mouse at 5 mg/kg, iv measured upto 96 hrs by HPLC-MS/MS analysis; type: ADME, organism-based; details: in vivo
QUANTITY_NAME: MRT last at 96 h (h)

| SMILES_REPRESENTATION | RECORDED_NUMBER |
| --- | --- |
| CN1CCN(c2cc3c(cc2Nc2nnc(-c4ccc(C(F)(F)F)cc4)s2)nc(-c2ccc(F)cc2)n3C2CC2)CC1 | 14.9 |

---

test: Inhibition of IL-6/JAK/STAT3 signalling pathway in HEK-Blue IL-6 cells incubated for 16 hrs by QUANTI-blue assay; type: cell-based; conditions: Homo sapiens, HEK-Blue IL-6, 16 h
pIC50: −log10 of the molar value.
QUANTITY_NAME: pIC50

| SMILES_REPRESENTATION | RELATIONAL_OPERATOR | RECORDED_NUMBER |
| --- | --- | --- |
| COc1cc(-c2nnc(Nc3cc4nc(-c5ccc(F)cc5)n(C5CC5)c4cc3N3CCN(C)CC3)s2)cc(OC)c1OC | = | 5.35 |
| CN1CCN(c2cc3c(cc2Nc2nnc(-c4ccccc4)s2)nc(-c2ccccc2)n3C2CC2)CC1 | = | 5.70 |
| CN(C)C1CCN(c2cc3c(cc2Nc2nnc(-c4ccccc4)s2)nc(-c2ccc(F)cc2)n3C2CC2)CC1 | = | 5.48 |
| CN1CCN(c2cc3c(cc2Nc2nnc(-c4cccnc4)s2)nc(-c2ccc(F)cc2)n3C2CC2)CC1 | < | 5.00 |
| CN1CCN(c2cc3c(cc2Nc2nnc(-c4ccccc4)s2)nc(-c2ccc(F)cc2)n3C2CCCC2)CC1 | = | 5.28 |
| Fc1ccc(-c2nc3cc(Nc4nnc(-c5cccc(C(F)(F)F)c5)s4)ccc3n2C2CC2)cc1 | < | 5.00 |
| CCCn1c(-c2ccc(F)cc2)nc2cc(Nc3nnc(-c4cccc(F)c4)s3)c(N3CCN(C)CC3)cc21 | = | 5.71 |
| Fc1ccc(-c2nc3cc(Nc4nnc(-c5ccccc5)s4)ccc3n2C2CC2)cc1 | = | 5.24 |

---

test system: HEK-Blue IL-6; test: Inhibition of IL-6/JAK/STAT3 signalling pathway in HEK-Blue IL-6 cells at 10 uM incubated for 16 hrs by QUANTI-blue assay relative to control; type: cell-based; settings: Homo sapiens
Quick reference for inhibition among some compounds

| SMILES_REPRESENTATION | inhibition / % |
| --- | --- |
| COc1cc(-c2nnc(Nc3cc4nc(-c5ccc(F)cc5)n(C5CC5)c4cc3F)s2)cc(OC)c1OC | 83.5 |
| CN1CCN(c2cc3c(cc2Nc2nnc(-c4cccc(F)c4)s2)nc(-c2ccc(F)cc2)n3C2CC2)CC1 | 82.1 |
| CCCn1c(-c2ccc(F)cc2)nc2cc(Nc3nnc(-c4ccccc4)s3)c(N3CCN(C)CC3)cc21 | 105 |
| CN(C)C1CCN(c2cc3c(cc2Nc2nnc(-c4ccccc4)s2)nc(-c2ccc(F)cc2)n3C2CC2)CC1 | 69.2 |
| CCCn1c(-c2ccc(F)cc2)nc2cc(Nc3nnc(-c4cc(OC)c(OC)c(OC)c4)s3)c(N3CCN(C)CC3)cc21 | 108 |
| CCOc1cc2c(cc1Nc1nnc(-c3cccc(C#N)c3)s1)nc(-c1ccc(F)cc1)n2C1CC1 | 92.5 |
| CC(C)N1CCN(c2cc3c(cc2Nc2nnc(-c4ccccc4)s2)nc(-c2ccc(F)cc2)n3C2CC2)CC1 | 77.1 |
| CN1CCN(c2cc3c(cc2Nc2nnc(-c4cccc(C(F)(F)F)c4)s2)nc(-c2ccc(F)cc2)n3C2CC2)CC1 | 100 |
| CCCn1c(-c2cccc(F)c2)nc2cc(Nc3nnc(-c4ccc(C(F)(F)F)cc4)s3)c(F)cc21 | 54.6 |
| CC(C)(C)c1ccc(-c2nnc(Nc3cc4nc(-c5ccc(F)cc5)n(C5CC5)c4cc3F)s2)cc1 | 36.1 |
| Fc1ccc(-c2nc3cc(Nc4nnc(-c5ccccc5C(F)(F)F)s4)c(F)cc3n2C2CC2)cc1 | 99.9 |
| CC(C)c1ccc(-c2nnc(Nc3cc4nc(-c5ccc(F)cc5)n(C5CC5)c4cc3F)s2)cc1 | 61.9 |
| Fc1cc2c(cc1Nc1nnc(-c3cccc(C(F)(F)F)c3)s1)nc(-c1cccc(C(F)(F)F)c1)n2C1CC1 | 72.8 |
| Fc1ccc(-c2nc3cc(Nc4nnc(-c5ccccc5)s4)ccc3n2C2CC2)cc1 | 66.1 |
| Fc1ccc(-c2nc3cc(Nc4nnc(-c5ccc(C(F)(F)F)cc5)s4)c(N4CCOCC4)cc3n2C2CC2)cc1 | 0.29 |
| CC(C)n1c(-c2ccc(F)cc2)nc2cc(Nc3nnc(-c4ccccc4)s3)c(N3CCN(C)CC3)cc21 | 71.4 |
| CCCn1c(-c2cccc(F)c2)nc2cc(Nc3nnc(-c4ccccc4C(F)(F)F)s3)c(F)cc21 | 46.2 |
| Fc1ccc(-c2nc3cc(Nc4nnc(-c5ccc(C(F)(F)F)cc5)s4)c(F)cc3n2C2CC2)cc1 | 64.1 |
| CCCn1c(-c2ccc(F)cc2)nc2cc(Nc3nnc(-c4ccc(C(F)(F)F)cc4)s3)c(N3CCN(C)CC3)cc21 | 90.9 |
| CN1CCN(c2cc3c(cc2Nc2nnc(-c4ccccc4)s2)nc(-c2ccccc2)n3C2CC2)CC1 | 78.1 |
| Fc1ccc(-c2nc3cc(Nc4nnc(-c5cccc(C(F)(F)F)c5)s4)ccc3n2C2CC2)cc1 | 34.5 |
| CN(C)CCn1c(-c2ccc(F)cc2)nc2cc(Nc3nnc(-c4ccccc4)s3)c(N3CCN(C)CC3)cc21 | 2.11 |
| Fc1cc2c(cc1Nc1nnc(-c3cccc(C(F)(F)F)c3)s1)nc(-c1ccc(C(F)(F)F)cc1)n2C1CC1 | 29.6 |
| Fc1ccc(-c2nc3cc(Nc4nnc(-c5ccccc5)s4)c(N4CCN(c5ccccc5)CC4)cc3n2C2CC2)cc1 | 21.3 |
| COCCn1c(-c2ccc(F)cc2)nc2cc(Nc3nnc(-c4ccccc4)s3)c(N3CCN(C)CC3)cc21 | 65.4 |
| CN1CCN(c2cc3c(cc2Nc2nnc(-c4ccccc4)s2)nc(-c2cccnc2)n3C2CC2)CC1 | 25.5 |
| Fc1ccc(-c2nc3cc(Nc4nnc(-c5ccc(C(F)(F)F)cc5)s4)ccc3n2C2CC2)cc1 | 8.71 |
| Fc1ccc(-c2nc3cc(Nc4nnc(-c5cccc(Cl)c5)s4)c(F)cc3n2C2CC2)cc1 | 67.8 |

All values here come from ChEMBL document CHEMBL5321275.
